Listed below: logP values for each entry.
# output: bare number, no unit

Record excerpt, results attached:
- COMPOUND: "CC1c2nc3ccccc3c(=O)n2CN1Cc1ccccc1 (stereo not given)"
  logP: 1.74
- COMPOUND: "CC1c2nc3ccccc3c(=O)n2CN1CCc1ccccc1 (stereo not given)"
  logP: 1.8
- COMPOUND: "Cc1ccc(N2Cn3c(nc4ccccc4c3=O)C2C)cc1 (stereo not given)"
  logP: 2.16
- COMPOUND: "CC1c2nc3ccccc3c(=O)n2CN1c1ccccc1 (stereo not given)"
  logP: 1.78

For the next question, use this compound.
stdin: Reported logP, compound COc1ccc(N2Cn3c(nc4ccccc4c3=O)C2C)cc1 (stereo not given) : ____
stdout: 1.73

====

assay: method code SF-AS, from DOI: 10.1080/01483919008048971; details: pH 5.0
logD under 1 gets y, anything at or over 1 gets n.

Take a look at these entries with their results.
- COMPOUND: "CC1c2nc3ccccc3c(=O)n2CN1CCO (stereo not given)"
  ASSIGNED LABEL: "y"
- COMPOUND: "CC1c2nc3ccccc3c(=O)n2CN1C (stereo not given)"
  ASSIGNED LABEL: "y"

stdin: Determine if CCCCN1Cn2c(nc3ccccc3c2=O)C1C (stereo not given) shows logD strictly lower than 1.
stdout: n

stdin: Take the compound CCCN1Cn2c(nc3ccccc3c2=O)C1C (stereo not given) and say whether its logD is less than 1.
stdout: n
